- Study target: Mitogen-activated protein kinase kinase kinase 3 (Homo sapiens)
- Experiment notes: modulators of MEKK3-MEK5 PB1 binding, primary screen, biochemical, wildtype MEKK3, multiplex bead flow cytometry, Alexa488-MEK5 (AID 1529);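 also: Alexa488 bead fluorescence after subtracting the streptavidin-only scavenger bead signal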
- Measurement context: bead-based flow cytometry, Alexa488-MEK5 binding to MEKK3; at 10 µM; actives lie on both sides; 0 = blocked by unlabeled MEK5, 100 = vehicle
About 4,200 (1.4%) of roughly 290,000 compounds were called active.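 The calls were made as follows: active = binding response more than 3 SD above or below the average of its plate-row segment, actives on both sides; inconclusive = wells at one plate position flagged as instrument error; inactive = the rest.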 The list comes from a sample in which actives are over-represented; it also holds close analogues and randomly drawn compounds.
The reply should be one of these categories: active, inactive

CC(C)CC(=O)NC(=S)Nc1cc(C(=O)O)ccc1Cl : active

Hello, I am checking results. What call was entered for `CCN(CC)CCOCCOc1ccc(Cl)c2ccccc12` ? active

What call does the record list for `Cc1ccc(-c2ccc(/C=C(\C#N)C(N)=S)o2)c([N+](=O)[O-])c1` ? inactive

Write down the call the test reported for this molecule. Item: Cc1ccc(CC2C(=O)N(c3ccc(F)cc3)C(=O)C2C)cc1 (stereo unspecified) inactive

Outcome? `c1ccc(-n2nnnc2-c2cccnc2)cc1` inactive

Every entry's value here was drawn from PubChem BioAssay AID1529.
